Assay: qHTS Assay for inhibitors of the human cytomegalovirus (HCMV); also: % is scaled to controls: 0 for no effect and ±100 for the full control effect
Conditions: HFF cells, HCMV-luciferase reporter, 72 h; at 57.5 µM; hits give low values
The campaign covered roughly 410,000 compounds. About 18,000 (4.4%) were called active. Not shown: some 7% with an inconclusive outcome. For the sample, actives were picked, then their nearest neighbours and some compounds at random.
# activity change, negative = inhibition values compiled below
Use % as the unit, but write only the number.

Solved cases below.
Cc1cc(C)cc(NC(=O)Cc2csc(C)n2)c1 :: 53.8
CCS(=O)(=O)N1CCN(C(=O)c2cccs2)CC1 :: 14.1
CCCc1ccc(-c2c(C)sc(NC(=O)c3ccnn3C)c2C#N)cc1 :: -97.3
Cc1c(C#N)c(NC(=O)c2ccccc2)n(Cc2ccccc2)c1C :: -33.4

Here is the next item to consider.
Short answer for `CCOc1ccc(CCNC(=O)COC(=O)CCS(=O)(=O)c2ccc(C)cc2)cc1OCC` : activity change, negative = inhibition was 55.9

----------
Assay: qHTS Assay for inhibitors of the human cytomegalovirus (HCMV); also: % is scaled to controls: 0 for no effect and ±100 for the full control effect
Conditions: HFF cells, HCMV-luciferase reporter, 72 h; at 57.5 µM
In all, about 410,000 compounds went through this assay and about 18,000 (4.4%) were called active. Not shown: some 7% with an inconclusive outcome. No stated cut-off is given here; in the data, active means activity change below about -60%; inconclusive means no clear call, values can overlap the other calls; inactive means above about -39%. What follows is part of a selection rich in actives, with near analogues and random picks from the rest.
Your reply should match one of these outcome classes. active, inactive

Please review the entries below; each comes with its answer.
COc1cccc(NC(=O)C2C(c3ccccc3)C2(Cl)Cl)c1 (stereo unspecified) :: inactive
CC(=O)Nc1ccc(Nc2c3ccccc3nc3ccccc23)cc1 :: active
O=C(COc1cc(Cl)c(Cl)cc1Cl)NC(=O)NC1CCCC1 :: inactive

*Q* In this assay, the call recorded for `Cc1oc2cc3oc(=O)ccc3cc2c1C` was what?
*A* inactive

*Q* Recorded test outcome, item `Cc1cccc(CC(=O)Nc2cccc(-c3cn4cccnc4n3)c2)c1`
*A* inactive

*Q* What was the test verdict on `O=C(Cn1c(=O)n(-c2ccc(F)cc2)c(=O)c2sc3ccccc3c21)NC1CCCC1` ?
*A* inactive

*Q* Outcome logged for `COc1ccc(N(C)C(=O)C2CCN(S(=O)(=O)c3cc(Br)cc4c3N(C(C)=O)CC4)CC2)cc1` in this assay:
*A* inactive

*Q* Returns: the outcome recorded for `COc1ccc(NC(=O)CSc2nnc(-c3nnn(-c4ccc(F)cc4)c3C)o2)cc1` in this assay.
*A* inactive

*Q* Please state the recorded outcome for this compound: `COc1ccc(Br)cc1CNC(=O)c1cc(=O)[nH]c2ccc(S(=O)(=O)N3CCCC3)cc12`
*A* inactive

*Q* Per the records of this test, what outcome belongs to `CCOCCCNC(=O)c1c(NC(=O)Cc2coc3ccc(C)cc23)sc2c1CCC2` ?
*A* inactive

*Q* Answer briefly: the call reported for CCOc1ccc(N(CC)S(=O)(=O)N2CCCC(C(=O)Nc3ccc(C(C)=O)cc3)C2)cc1 (stereo unspecified) in this assay.
*A* inactive

----------
Form field: activity change, negative = inhibition (one value per entry).
Experiment: qHTS Assay for inhibitors of the human cytomegalovirus (HCMV); also: % is scaled to controls: 0 for no effect and ±100 for the full control effect
Details: HFF cells, HCMV-luciferase reporter, 72 h; at 57.5 µM; hits give low values
The whole screen tested about 410,000 compounds, of which about 18,000 (4.4%) were called active. About 7% were inconclusive and are not listed. The sample as a whole holds a higher share of actives than the screen did.
// return numeric value only (unit: %, not printed)

Example entries and their recorded answers appear below.
Cc1nnc(N/N=C/c2ccccn2)[nH]c1=O :: -97.8
COc1ccc(-n2c(SC)nc3sc4c(c3c2=O)CCN(C(C)=O)C4)cc1 :: 24.9
O=C(CCS(=O)(=O)c1cc(Br)cc2c1N(C(=O)C1CC1)CC2)Nc1ccc(Br)cc1F :: -5.42
N#Cc1nc(/C=C/c2ccc(F)cc2)oc1NCc1ccc(F)cc1 :: -13.8
CC(Oc1ccc2ccccc2c1)C(=O)NNC(=S)NC(=O)c1ccco1 (configuration not stated) :: -3.96
CCOc1cc(/C=C(/C#N)c2ccc(Cl)cc2)cc(Cl)c1OCC(=O)O :: -79.4

The molecule `O=C(NCc1ccco1)/C(=C\c1cccc([N+](=O)[O-])c1)NC(=O)c1ccco1` showed activity change, negative = inhibition equal to -72

get_value(item= `CCOC(=O)CN(C(=O)COc1nc(C)cc(C)c1C#N)c1ccc(Cl)cc1` , readout=activity change, negative = inhibition) returns -1.87

For reference, reported activity change, negative = inhibition for O=C(Nc1ccc2c(c1)OCCO2)C1c2ccccc2OCC(=O)N1Cc1ccccn1 (configuration not stated) stands at 3.21

Reported activity change, negative = inhibition of `CCCSc1ncc(Cl)c(C(=O)Nc2sc3c(c2C(=O)NCCOC)CCCC3)n1` : -24

----------
Assay: qHTS Assay for inhibitors of the human cytomegalovirus (HCMV); also: % is scaled to controls: 0 for no effect and ±100 for the full control effect
Settings: HFF cells, HCMV-luciferase reporter, 72 h; at 57.5 µM; hits give low values
About 18,000 (4.4%) of roughly 410,000 compounds were called active. Roughly 7% stayed inconclusive and do not appear here. This is one part of a sample in which actives are shown more often than they occur.
observedProperty: activity change, negative = inhibition (%)
Numbers only; they are read as %.

COc1ccc(CN2CCOC2=O)cc1OC :: -13.1
O=C(Nc1ccccc1Br)c1cc(CN2CCCC2)on1 :: 27.2
Cc1ccc(OCCn2c(CNc3ccccc3C)nc3ccccc32)cc1 :: 38
O=C(CSc1n[nH]c(-c2ccccc2)n1)N1CCCCC1 :: 61.5
C=CCSc1nnc(Cn2c(=O)sc3ccccc32)n1C :: -2.22

The compound listed as `Cc1nc2nc(C)c(NS(=O)(=O)c3ccc(C(C)(C)C)cc3)c(=O)n2[nH]1` has a reported activity change, negative = inhibition of 2.48

----------
Assay: qHTS Assay for inhibitors of the human cytomegalovirus (HCMV); also: % is scaled to controls: 0 for no effect and ±100 for the full control effect
Conditions: HFF cells, HCMV-luciferase reporter, 72 h; at 57.5 µM
In all, about 410,000 compounds went through this assay and about 18,000 (4.4%) were called active. Another 7% or so got no clear call; they are omitted. No stated cut-off is given here; in the data, active means activity change below about -60%; inconclusive means no clear call, values can overlap the other calls; inactive means above about -39%. The sample as a whole holds a higher share of actives than the screen did.
API: response.call in active, inactive

Reference set, count: 5
COc1ccc(C2c3ccc(O)cc3Oc3ncn(CCCO)c(=N)c32)cc1OC (stereo not given) :: inactive
CC(=O)c1ccc(NC(=O)CCc2nc(-c3ccc(C)cc3)no2)cc1 :: inactive
Cc1cccc(N(CC(O)CN(C)C)S(=O)(=O)c2ccccc2)c1 (stereo not given) :: inactive
Cc1cc(C)cc(NC(=O)CCCc2nc(-c3ccccc3Cl)no2)c1 :: inactive
CCOC(=O)c1c(S(=O)(=O)N2CCCC(C(=O)NCc3ccc(F)cc3)C2)c(C)n(CC)c1C (stereo not given) :: inactive

Now let's try a different one.
*Q* Test call, this compound: `CCCCNC(=O)CN1C(=O)NC(Cc2ccccc2)(Cc2ccccc2)C1=O`
*A* inactive

----------
Test: qHTS Assay for inhibitors of the human cytomegalovirus (HCMV); also: % is scaled to controls: 0 for no effect and ±100 for the full control effect
Details: HFF cells, HCMV-luciferase reporter, 72 h; at 57.5 µM
Out of some 410,000 compounds screened, about 18,000 (4.4%) were called active. Roughly 7% stayed inconclusive and do not appear here. No stated cut-off is given here; in the data, active means activity change below about -60%; inconclusive means no clear call, values can overlap the other calls; inactive means above about -39%. What follows is part of a selection rich in actives, with near analogues and random picks from the rest.
Returns: one label drawn from YES = active, NO = inactive

Solved cases below.
C/C(=N/NS(=O)(=O)c1ccccc1)c1ccc(NC(=O)C(F)(F)F)cc1 :: NO
O=C(Cc1ccc(NC(=O)C2CCCN(C(=O)C3CCCCC3)C2)cc1)Nc1cccc(C(=O)N2CCCCC2)c1 (stereo not given) :: NO
CCN(c1ccc(Cl)cc1)S(=O)(=O)c1nnc(NC(=O)c2ccco2)s1 :: NO
COc1ccc(NC(=O)c2ccc3oc(=O)c(S(=O)(=O)c4ccc(F)cc4)cc3c2)c(OC)c1 :: NO

*Q* Call for entry `C/C(=N\NS(=O)(=O)c1ccc(Cl)cc1)c1ccc(NC(=O)c2ccco2)cc1` :
*A* YES

----------
Assay: qHTS Assay for inhibitors of the human cytomegalovirus (HCMV); also: % is scaled to controls: 0 for no effect and ±100 for the full control effect
Conditions: HFF cells, HCMV-luciferase reporter, 72 h; at 57.5 µM
Out of some 410,000 compounds screened, about 18,000 (4.4%) were called active. Roughly 7% stayed inconclusive and do not appear here. Cut-off read from the data, not from the text of the source: active = activity change below about -60%; inconclusive = no clear call, values can overlap the other calls; inactive = above about -39%. What follows is part of a selection rich in actives, with near analogues and random picks from the rest.
Valid outcomes are listed here; reply with one: 1 (active), -1 (inactive)

CCc1cccc(NC(=O)CN(c2ccc(C)c(C)c2)S(=O)(=O)c2ccsc2C(=O)OC)c1 :: -1
O=C(NCc1ccc(F)cc1)c1ccc2nc(N3CCCCC3)sc2c1 :: -1
CCN(CC)c1ccc(C2C(C(N)=O)=C(C)Nc3nc(SCc4ccccc4)nn32)cc1 (stereo not given) :: 1
CCOC(=O)C(CCOc1cccc(CC)c1)C(=O)OCC :: -1
CC1=C(C(=O)Nc2ccccc2)C(c2ccc(C)cc2)n2nc(SCc3ccccc3C)nc2N1 (stereo not given) :: -1

*Q* Hi team, can someone confirm the assay call for `Cc1cccc(N(C)C(=O)CS(=O)(=O)c2cccc3nsnc23)c1` ?
*A* -1

*Q* Assay outcome for `O=C(NCCc1ccc(Cl)cc1)c1ccc2nc(CCc3ccccc3)oc2c1` : what was it?
*A* -1

*Q* I'd appreciate the recorded outcome for CCCN(CCC)C(=O)C(Cc1ccccc1)NS(=O)(=O)c1ccc2c(c1)c(=O)n(C)c(=O)n2C (stereo not given) from this test.
*A* -1

*Q* For `CCOC(=O)c1c(NC(=O)COc2cc(C)ccc2C(C)C)sc(C)c1C` , which call appears in the assay record?
*A* -1

*Q* Lab log entry: `O=C(CCOc1ccccc1)N(Cc1cccnc1)c1nc2ccc(Cl)cc2s1` — outcome as called in the assay?
*A* -1
